# Assayed Target: T1, human CD20 on cells (human, UniProt P11836 1-297)
# T1 construct: whole, on cells; Tumour antigen on the target cells; also called CD20 positive Ramos cells; Ramos cells
# T1 sequence (looked up): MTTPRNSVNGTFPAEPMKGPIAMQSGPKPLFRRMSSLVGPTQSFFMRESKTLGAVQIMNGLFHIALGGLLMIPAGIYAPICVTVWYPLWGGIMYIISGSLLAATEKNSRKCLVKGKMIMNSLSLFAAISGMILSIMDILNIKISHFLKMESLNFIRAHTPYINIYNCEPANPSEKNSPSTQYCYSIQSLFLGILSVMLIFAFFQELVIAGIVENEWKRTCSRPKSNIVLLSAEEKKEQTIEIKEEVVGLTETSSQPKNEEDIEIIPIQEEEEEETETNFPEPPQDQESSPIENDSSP
# Measurement Notes: flow cytometry, Ramos cells
Catalogue of pEC50 readings, one per entry.
# reply with the number alone; pEC50 is -log10 of concentration in mol/L

[[record]]
binder = "T017000068 (bispecific antibody, CD20 x TCR bispecific Nanobody construct (cluster B); entry includes the FLAG3-HIS6 tag; also called 20CD019C07-35GS-T0170055C07-FLAG3-HIS6) EVQLVESGGGLVQPGGSLRLSCTFSGGTFSSYTMGWFRQAPGKEREFVAEVRWGGVTTYSNSLKDRFSISEDSVKNAVYLQMNSLKPEDTAVYYCAAVRQMYMTVVPDYWGQGTLVTVSSGGGGSGGGGSGGGGSGGGGSGGGGSGGGGSGGGGSEVQLVESGGGLVQPGGSLRLSCITSGETFKINIWGWYRQAPGKQRELVASLTIGGATNYADSVKGRFTISEDSAKNTVYLQMNSLKPEDTAVYFCNAKSRLYPYDYWGQGTLVTVSSGAADYKDHDGDYKDHDIDYKDDDDKGAAHHHHHH"
val = 8.74


Now look at this one.
The binder listed as T017000074 (bispecific antibody, TCR x CD20 bispecific Nanobody construct (cluster A); entry includes the FLAG3-HIS6 tag; also called T0170056G05-35GS-20CD019C07-FLAG3-HIS6) EVQLVESGGGLVQPGGSLRLSCVASGDVHKINFLGWYRQAPGKEREKVAHISIGDQTDYADSAKGRFTISRDESKNMVYLQMNSLKPEDTAVYFCRAFSRIYPYDYWGQGTLVTVSSGGGGSGGGGSGGGGSGGGGSGGGGSGGGGSGGGGSEVQLVESGGGLVQPGGSLRLSCTFSGGTFSSYTMGWFRQAPGKEREFVAEVRWGGVTTYSNSLKDRFSISEDSVKNAVYLQMNSLKPEDTAVYYCAAVRQMYMTVVPDYWGQGTLVTVSSGAADYKDHDGDYKDHDIDYKDDDDKGAAHHHHHH has a reported pEC50 of 7.80
